Data origin, for the record: PubChem BioAssay (NCATS)

Test system: Zika virus NS2B-NS3 protease (linked construct)
measurement.description: Confirmatory screen NINDS AMC qHTS for Zika virus inhibitors (AID 1347152); further: nearly all actives have a fitted effect of over 70% in size
setup.conditions: Purified linked NS2B-NS3, AMC substrate fluorescence; series mostly up to 110 µM
Results filed as inconclusive are left out. Calls of active or inactive are those of the source. The call rests on the fitted dose curve; in most records, active means well fitted inhibition curve with a large enough effect; inconclusive means small, poorly fitted or top-dose-only effect; inactive means flat fitted curve, though single readings scatter.
Possible outcomes: active, inactive

> print(dat)
                                    compound  label.class
 1  O=C(O)Cn1ccc2cc(OCc3cccc(-c4cccc(C(F)(F)F)c4)c3)cnc21       active
 2  O=C(Nc1cccc2ccccc12)O[C@@H]1CO[C@H]2[C@@H]1OC[C@@H]2NS(=O)(=O)c1cccc2cccnc12     inactive
 3       O=C(O)c1ccc(-c2ccc(C(F)(F)F)cc2)cc1     inactive
 4                      Clc1nc2n[nH]nc2nc1Cl       active
 5  CS(=O)(=O)c1ccc(Nc2ccc3c(c2)OCO3)c([N+](=O)[O-])c1     inactive
 6  COc1ccc(-c2nc(C(=O)N3CCN(C)CC3)sc2-c2ccc(OC)cc2)cc1       active
 7     O=C(O)c1cccc(-c2cc(C(F)(F)F)ccc2Cl)c1     inactive
 8        CS(=O)(=O)c1ccc(-c2cn3ccccc3n2)cc1       active
 9  CC(C)(C)c1ccc(NC(=O)O[C@@H]2CO[C@H]3[C@@H]2OC[C@@H]3Nc2nccc(-c3ccc(-c4ccccc4)cc3)n2)cc1     inactive
10  Clc1ccc(-c2nn3c(COc4cccc(OCc5nnc6sc(-c7ccc(Cl)cc7)nn56)c4)nnc3s2)cc1       active
11  O=C(O)COc1ccc(-c2nccc3c2C(=O)N(Cc2cccc(C(F)(F)F)c2)CC(COc2cccnc2)O3)cc1 (stereo not drawn)     inactive
12  O=C(OCC#CCSc1nnc(-c2ccc(Cl)cc2)o1)c1ccc(F)cc1     inactive
13  O=C(Nc1ccc(Oc2ccccc2)cc1)O[C@@H]1CO[C@H]2[C@@H]1OC[C@@H]2NS(=O)(=O)c1ccc2ccccc2c1     inactive
14  N#C/C(=C\c1ccc(Br)cc1)c1nc(-c2cc3cc(Br)ccc3oc2=O)cs1     inactive
15  N#Cc1ccccc1OCC1CN(Cc2cccc(C(F)(F)F)c2)C(=O)c2c(ccnc2-c2ccc(OCC(=O)O)cc2)O1 (stereo not drawn)     inactive
16  O=C(Nc1cccc2ccccc12)O[C@@H]1CO[C@H]2[C@@H]1OC[C@@H]2NS(=O)(=O)c1ccc2ccccc2c1     inactive
17  CN(Cc1ccc(C(=O)O)cc1)c1ccc(OCc2c(-c3c(Cl)cccc3Cl)noc2C2CC2)nc1C(F)(F)F       active
18  O=S(=O)(N[C@H]1CO[C@H]2[C@@H]1OC[C@@H]2n1nnnc1-c1ccc2c(c1)OCO2)c1ccc2ccccc2c1     inactive

====

measurement.description: G06 Cancer Cell Toxicity qHTS against the NCATS CANVASS Library (AID 1347368); further: nearly all actives have a fitted effect of over 60% in size
setup.conditions: G06 dog glioma cells, viability ATP luminescence, 72 h; series mostly up to 46.1 µM
Source text: Natural products and their derivatives continue to be wellsprings of nascent therapeutic potential. […] To address this issue, the Canvass library of natural products was assembled (https://tripod.nih.gov/canvass), in collaboration with academic and industry researchers, for quantitative high-throughput screening (qHTS) across a diverse set of cell-based and biochemical assays. […] This assay uses ATP (luminescence) content to measure the cytotoxiciy of compounds on G06 dog glioma cancer cell line. […]
Results filed as inconclusive are left out. The source made the active and inactive calls. The call rests on the fitted dose curve; in most records, active means well fitted cell-killing curve with a large enough effect; inconclusive means small, poorly fitted or top-dose-only effect; inactive means flat fitted curve, though single readings scatter.
Possible outcomes: active, inactive

molecule	label.class
C[C@@H]1C(=O)[C@]23CC[C@H]1C[C@]21O[C@H]2C(C)(C)C=CC(=O)[C@]23COC1=O	inactive
CC1C(=O)C23CCC1C[C@]21O[C@@H]2C(C)(C)C=CC(=O)[C@@]23COC1=O (some centres not stated)	inactive
O=Cc1ccc2n1C[C@@]1(OC2)O[C@H](CO)[C@@H](O)[C@@H]1O	inactive
CC(C)=CCC[C@@H](C)[C@@H]1CC[C@@]2(C)C[C@H]3C(C)=CC(=O)[C@@H]3/C(C=O)=C\C[C@H]12	active
COc1cc(/C=C2/C(=O)N(c3ccc(O)cc3C(=O)O)[C@H](c3ccc(O)c(OC)c3)C2C(=O)Nc2ccc(O)cc2C(=O)O)ccc1O (some centres not stated)	inactive
COc1ccc(CCCc2cc(O)c(OC)c(O)c2)c(O)c1O	active
C=C1C(=O)O[C@H]2C[C@H](C)[C@@H]3CC(=O)C(C)=C3[C@H](O)[C@H]12	active
Oc1ccc([C@H]2Oc3ccc(/C=C/c4cc(O)cc(O)c4)cc3C2c2cc(O)cc(O)c2)cc1 (some centres not stated)	inactive
C=C1C[C@@]23C=CC(=O)[C@@](C)(CCC(=O)Nc4c(O)ccc(C(=O)O)c4O)C2C[C@@H]1C(O)C3 (some centres not stated)	inactive
C[C@@]12CCC[C@@](C)(C(=O)O)[C@H]1C[C@@H](O)[C@]13C[C@H]4C[C@H](O[C@@]4(C)C1)[C@@H]23	inactive
C/C=C/C=C/C1(O)C2C=C3C(=O)CC45C(=O)C(O)=C(C)C(=O)C4C1C1(C(=O)C(O)=C(C)C(=O)C351)C2C (configuration not stated)	inactive
CO[C@H]1/C=C/CC[C@@H](S[C@@H]2O[C@H](CO)[C@@H](O)[C@H](O)[C@H]2O)CC(=O)O[C@@H](/C(C)=C/[C@H](C)C(=O)CCCC2CC(=O)NC(=O)C2)[C@@H](C)[C@@H]1O	active
C=C1[C@H]2CC[C@@]3(C=CC(=O)[C@@](C)(CCC(=O)Nc4c(O)ccc(C(=O)O)c4O)C3C2)[C@H]1O (some centres not stated)	inactive
C1=C2CCCN[C@@H]2[C@@H]2CCN3CCCC[C@@H]3[C@H](C1)C2	inactive
O=C(O)[C@@]12COC3(O)C1CCN1CC[C@H]3[C@@H]1c1c2[nH]c2ccccc12	inactive
COc1ccc(/C=C2\COc3cc(O)ccc3C2=O)cc1	inactive
C=CC(C)(C)C(=O)[C@@H](C)[C@@H]1CC[C@](C)(C=C)O1	inactive
